Experiment: NCI Yeast Anticancer Drug Screen. Data for the CLN2oe strain (AID 163);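 note: 0% = growth of vehicle-only control cultures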
Conditions: S. cerevisiae CLN2oe strain, at 100.0 µM, active compounds read high
Protocol: Growth inhibition of yeast strains with defined genetic alterations is measured as a screen for potential anti-cancer activity. Selected strains with alterations in DNA damage repair or cell cycle control were exposed to compounds and growth inhibition was measured relative to vehicle treated controls. The strain used in this assay is CLN2oe
This is part of a sample that, as a whole, favours compounds with a hit. Of some 79,000 tested, about 15% had one in any assay.

# compound, growth inhibition / %
data = [
    ("Cc1cc(NC(=S)SCc2ccc(Cl)cc2)ccc1Cl", 98),
    ("S=C1NC2=C(CSC/C2=C\\c2ccc(Cl)cc2)C(c2ccc(Cl)cc2)N1 (configuration not stated)", 71),
    ("O=CC(=C(I)I)c1ccccc1", 98),
    ("Cc1ccc(Nc2n[nH]c(=S)s2)cc1C", 76),
    ("[Cl][Pt+2][Cl].[NH-]CC1(C[NH-])CCCCC1", 98),
    ("CCC(C)/C(C)=N/NC(N)=O (configuration not stated)", -5),
    ("c1cc(Nc2ccc3c(c2)OCO3)c2cc(C3CCCCC3)ccc2n1", 52),
]

###

// growth inhibition lookup, one value per entry
Experiment: NCI Yeast Anticancer Drug Screen. Data for the rad50 strain (AID 155);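 note: 0% = growth of vehicle-only cultures of the same strain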
Details: S. cerevisiae rad50 strain growth inhibition; at 100.0 µM; active compounds read high
Method: Growth inhibition of yeast strains with defined genetic alterations is measured as a screen for potential anti-cancer activity. Selected strains with alterations in DNA damage repair or cell cycle control were exposed to compounds and growth inhibition was measured relative to vehicle treated controls. The strain used in this assay is rad50
About 79,000 compounds went through this panel and 15% of them were active in at least one assay; those are over-represented in the sample as a whole.

# compound, display-unit, growth inhibition
rows = [
    ("Oc1ccc(Br)cc1C=Nc1cccc(C(F)(F)F)c1", "%", 97),
    ("Cc1cccc[c]1[Sn]([Cl])([S]/C(C#N)=N/N=C/c1ccc(N(C)C)cc1)[c]1ccccc1C", "%", 94),
    ("[O-]c1c2cc(-[n+]3c(-c4ccccc4)cc(-c4ccccc4)cc3-c3ccccc3)cc1COCCOCCOCCOCCOC2", "%", 80),
    ("COc1ccc(/C=C2\\S/C(=N/Nc3nc(-c4ccccc4)cs3)NC2=O)cc1OC", "%", 93),
    ("CN(C)c1ccc(/C=C/c2ccnc3ccc4ccccc4c23)cc1", "%", 70),
    ("CCC1SC(=S)N(c2ccc(Cl)cc2)C1=O (centres undefined)", "%", 96),
    ("COc1ccc2cc(CN3CCC(C4CCN(Cc5ccc6cc(OC)ccc6c5)CC4)CC3)ccc2c1", "%", 97),
    ("CCOC(=O)C(NC(=O)c1ccccc1)[CH](c1ccccc1)[Sn]([c]1ccccc1)([c]1ccccc1)[c]1ccccc1 (centres undefined)", "%", 92),
    ("O=C(N/N=C/c1ccc2c(c1)CCC2)c1ccccc1[N+](=O)[O-]", "%", 94),
]

###

// growth inhibition lookup, one value per entry
Assay: NCI Yeast Anticancer Drug Screen. Data for the mlh1 strain (AID 171);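 note: 0% = growth of vehicle-treated control cultures of the same strain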
Details: S. cerevisiae mlh1 strain growth inhibition; at 100.0 µM; active compounds read high
Compounds without any hit were thinned out: in the full panel of roughly 79,000, 15% have a hit.

# molecule, growth inhibition, %
records = [
    ("O=C(CSS(=O)(=O)O)c1ccccc1", 24),
    ("C[n+]1c(-c2ccc(NC(=O)c3ccc(C(=O)Nc4ccc(-c5cn6ccccc6[n+]5C)cc4)cc3)cc2)cn2ccccc21", 94),
    ("CC1(C)CC(=O)C(C(CC(c2ccccc2)c2cc3c(cc2O)OCO3)C2=C(O)CC(C)(C)CC2=O)=C(O)C1 (stereo not drawn)", 87),
    ("CN(C)CCNC(=O)c1cccc2nc3c4ccccc4c4ccccc4c3nc12", 94),
    ("CC(C)OC(CCC#N)c1ccc(Cl)cc1 (stereo not drawn)", 11),
    ("CCOC(=O)C1=C(C)NC(C)=C(C(=O)OCC)C1c1cccc([N+](=O)[O-])c1", 86),
    ("[N-]=[N+]=NC1CC(n2ccc(=O)[nH]c2=O)OC1COC(c1ccccc1)(c1ccccc1)c1ccccc1 (stereo not drawn)", 77),
    ("S=C1NC2=C(CSC/C2=C\\c2ccc(Cl)cc2)C(c2ccc(Cl)cc2)N1 (stereo not drawn)", 75),
    ("CCC1SC(=S)N(c2ccc(Cl)cc2)C1=O (stereo not drawn)", 97),
    ("c1cc2ccc3cc4ncccc4c4ccc(c1)c2c34", 88),
    ("Nc1nc(Nc2ccccc2)nc(Nc2ccccc2)n1", 97),
    ("O=c1[nH]cc(F)c(=O)[nH]1", 93),
    ("CC1=NN(C(=O)CC(=O)N(C(=O)c2ccccc2)c2ccc(Cl)cc2)C(=O)C1N=Nc1ccc([N+](=O)[O-])cc1 (stereo not drawn)", 69),
    ("CC(C)(C(=O)NN)c1ccccc1", 91),
    ("CCOc1ccc2ccc3cccnc3c2n1", 63),
    ("CCSc1c2ccccc2c(-c2nc(F)nc(F)n2)n1CCc1ccccc1", 97),
    ("CC(=O)c1ccc(NCN2C(=O)c3ccccc3C2=O)cc1", 83),
    ("CCOc1ccccc1N1C(=O)CC(Sc2ccccc2N)C1=O (stereo not drawn)", -24),
    ("CCN(CC)c1cccc(Nc2nc3ccccc3s2)c1", 8),
    ("COC1=C(N=[N+]=[N-])C(=O)c2ncccc2C1=O", 94),
    ("c1cc(Nc2ccc3c(c2)OCO3)c2cc(C3CCCCC3)ccc2n1", 82),
    ("Cc1c2ccncc2c(C)c2c1oc1ccccc12", 98),
    ("CCCCCC/C(C)=N/Nc1ccc([N+](=O)[O-])cc1[N+](=O)[O-]", -18),
]
